# Experimental target: E. coli TP (Escherichia coli, UniProt P07650)
# Construct: purchased Sigma Aldrich T2807-1KU
# Sequence (P07650 whole entry): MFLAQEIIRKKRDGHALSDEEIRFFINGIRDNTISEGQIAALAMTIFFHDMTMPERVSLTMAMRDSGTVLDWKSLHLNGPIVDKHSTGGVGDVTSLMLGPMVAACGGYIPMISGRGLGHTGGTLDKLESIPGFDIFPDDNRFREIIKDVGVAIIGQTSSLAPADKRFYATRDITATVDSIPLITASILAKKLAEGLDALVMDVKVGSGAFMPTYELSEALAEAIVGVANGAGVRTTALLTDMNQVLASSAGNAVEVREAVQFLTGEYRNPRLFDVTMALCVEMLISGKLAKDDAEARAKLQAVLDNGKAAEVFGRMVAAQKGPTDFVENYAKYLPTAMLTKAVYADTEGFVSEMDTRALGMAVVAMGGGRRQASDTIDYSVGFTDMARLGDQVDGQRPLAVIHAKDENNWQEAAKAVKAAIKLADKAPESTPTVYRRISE
# Protocol description: In vitro E. coli thymidine phosphorylase inhibition, spectrophotometric assay at 290 nm
# Type: biochemical
# Protocol conditions: compound at 50 µM; 2.5% DMSO; average of three measurements
The reader will find reported inhibition at 50 µM values listed item by item below.

In [3]: df
Out[3]:
                                   compound  endpoint_value
0  Cc1cn(CCCCN2C(=O)c3cc4cc5c(cc4nc3C2=O)OCO5)c(=O)[nH]c1=O [Compound 13a]             25%
1  O=C(NCc1cc(=O)[nH]c(=O)[nH]1)c1cc2c(=O)[nH]c(=O)[nH]c2nc1C(=O)NCc1cc(=O)[nH]c(=O)[nH]1             31%

Now examine the next entry.
**Query** What does the data say about its inhibition at 50 µM? Entry: O=c1[nH]c(=O)c2cc[nH]c2[nH]1 [Compound 7-DX, 7-Deazaxanthine, reference compound]
**Result** 60%
